Origin of measurements: the supplement of paper PMC7125110

B1: glmS ribozyme (parent)
chain: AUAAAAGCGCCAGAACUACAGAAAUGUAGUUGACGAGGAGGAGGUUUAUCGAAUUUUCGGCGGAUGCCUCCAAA

- Variants of: B1
- experimental-details: self-cleavage kobs at 640 uM GlcN6P; higher = faster cleavage; RNA array
- run-parameters: with glucosamine-6-phosphate
Variants at the floor of the assay were thinned out.
# self-cleavage kobs at 640 uM GlcN6P values compiled below

Example results:
> print(dat)
   mutation.descriptor                    measured.quantity  assay.value
1       C16A G62U C71G  self-cleavage kobs at 640 uM GlcN6P  < 1e-05 s⁻¹
2            A36G U56A  self-cleavage kobs at 640 uM GlcN6P  < 1e-05 s⁻¹
3            G66A C68U  self-cleavage kobs at 640 uM GlcN6P  0.00267 s⁻¹

What does the data say about its self-cleavage kobs at 640 uM GlcN6P? Entry: A52G C61U C68G
0.000189 s⁻¹

Also C10A A42G U47C C50G C70U , if possible.
< 1e-05 s⁻¹

Proceed to U46C G51C C70U
< 1e-05 s⁻¹

Can you handle A15C G37U next?
< 1e-05 s⁻¹

Try this variant too: C34U G37A C50A A52G C70G
0.000453 s⁻¹

Next variant: U57C A64G
3.93e-05 s⁻¹
